Known nuclear count per well of a selection of compounds
Test system: HeLa;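 further: Hoechst-stained nuclei counted by automated confocal imaging of four fields per well in 384-well plates, with the robust Z-score based on the per-plate DMSO median and robust SD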
experimentalProtocol: nuclear count per well, robust Z-score vs DMSO; higher = more cells (less toxicity)
studyConditions: 10 µM; 6 h
Counter-ions that a name gives are not always drawn.
Give the figure by itself; no unit, no explanation.

Examples with answers:
[
  {
    "compound": "COC(=O)C1=C(C)NC(C)=C(C(=O)OCC(C)C)C1c1ccccc1[N+](=O)[O-] (centres undefined)",
    "tgt": "HeLa",
    "nuclear count per well": 0.984
  },
  {
    "compound": "CNC(=O)c1cnn(-c2nc(N)c3ncn([C@@H]4O[C@H](CO)[C@@H](O)[C@H]4O)c3n2)c1",
    "tgt": "HeLa",
    "nuclear count per well": 1.3
  },
  {
    "compound": "COc1cc2ncnc(Nc3cccc(Cl)c3)c2cc1OC",
    "tgt": "HeLa",
    "nuclear count per well": -0.224
  },
  {
    "compound": "COC(=O)Nc1nc2cc(C(=O)c3ccccc3)ccc2[nH]1",
    "tgt": "HeLa",
    "nuclear count per well": -3.08
  },
  {
    "compound": "CC(=O)OCC(=O)[C@@]1(O)CC[C@H]2[C@@H]3CCC4=CC(=O)CC[C@]4(C)[C@H]3[C@@H](O)C[C@@]21C [Hydrocortisone Acetate]",
    "tgt": "HeLa",
    "nuclear count per well": 1.42
  },
  {
    "compound": "O=NN(CCCl)C(=O)NCCCl",
    "tgt": "HeLa",
    "nuclear count per well": 0.92
  },
  {
    "compound": "CC(COc1ccccc1)N(CCCl)Cc1ccccc1 (centres undefined)",
    "tgt": "HeLa",
    "nuclear count per well": 0.113
  },
  {
    "compound": "CC(C)Nc1cccnc1N1CCN(C(=O)c2cc3cc(NS(C)(=O)=O)ccc3[nH]2)CC1 [Delavirdine Mesylate]",
    "tgt": "HeLa",
    "nuclear count per well": -0.582
  },
  {
    "compound": "COC1=C2C[C@@H](C)C[C@H](OC)[C@H](O)[C@@H](C)/C=C(\\C)[C@H](OC(N)=O)[C@@H](OC)/C=C\\C=C(/C)C(=O)NC(=CC1=O)C2=O",
    "tgt": "HeLa",
    "nuclear count per well": -0.101
  },
  {
    "compound": "CC(C)C[C@H](NC(=O)[C@@H](Cc1c[nH]c2ccccc12)NC(=O)[C@H](Cc1ccc(O)cc1)NC(=O)[C@H](CO)NC(=O)[C@H](Cc1c[nH]c2ccccc12)NC(=O)[C@H](Cc1cnc[nH]1)NC(=O)[C@@H]1CCC(=O)N1)C(=O)N[C@@H](CCCN=C(N)N)C(=O)N1CCC[C@H]1C(=O)NCC(N)=O [Triptorelin Acetate]",
    "tgt": "HeLa",
    "nuclear count per well": 0.525
  }
]

For reference, reported nuclear count per well for CCC(=O)O[C@]1(C(=O)CCl)[C@@H](C)C[C@H]2[C@@H]3C[C@H](F)C4=CC(=O)C=C[C@]4(C)[C@@]3(F)[C@@H](O)C[C@@]21C [Halobetasol Propionate] stands at 0.573

For reference, reported nuclear count per well for COc1ccc2cc3[n+](cc2c1OC)CCc1cc2c(cc1-3)OCO2 [Berberine chloride form] stands at -1.49

For reference, reported nuclear count per well for `Cc1nc(Nc2ncc(C(=O)Nc3c(C)cccc3Cl)s2)cc(N2CCN(CCO)CC2)n1` stands at -1.63

For reference, reported nuclear count per well for CN(C)CCCN1c2ccccc2Sc2ccc(Cl)cc21 [Chlorpromazine hydrochloride] stands at 0.508
